species on record: Rattus norvegicus; experiment: DrugMatrix - Regimen: Daily Repeat; format: toxicity, organism-based, Sprague-Dawley; parameters: regimen Daily Repeat, gender Male, age 6-8 weeks; settings: in vivo, po, 0 mg/kg, 120 h, tissue Plasma, route oral GAVAGE, dose level Control, time 5 day, […]
Assign BLOOD UREA NITROGEN to each entry below.
Report the value in mg/dL with no unit label.

Ask: Entry COC1=CC(=O)C[C@@H](C)[C@]12Oc1c(Cl)c(OC)cc(OC)c1C2=O [GRISEOFULVIN] : reported BLOOD UREA NITROGEN = ?
Result: 15.67

Ask: Given the molecule CC1=C(/C=C/C(C)=C/C=C/C(C)=C\C(=O)O)C(C)(C)CCC1 [ISOTRETINOIN] , what is its reported BLOOD UREA NITROGEN?
Result: 15.5

Ask: Could you share which BLOOD UREA NITROGEN value was measured for COCc1c(C(C)C)nc(C(C)C)c(/C=C/[C@@H](O)C[C@@H](O)CC(=O)O)c1-c1ccc(F)cc1 [CERIVASTATIN] ?
Result: 16.83

Ask: Query: BLOOD UREA NITROGEN; subject: c1ccc2[nH]c(-c3cscn3)nc2c1 [THIABENDAZOLE]
Result: 14

Ask: What does the record list as BLOOD UREA NITROGEN for CC(C)(Oc1ccc(CCNC(=O)c2ccc(Cl)cc2)cc1)C(=O)O [BEZAFIBRATE] ?
Result: 6

Ask: So what does the record say about BLOOD UREA NITROGEN for CC(=O)[C@H]1CC[C@H]2[C@@H]3CCC4=CC(=O)CC[C@]4(C)[C@H]3CC[C@]12C [PROGESTERONE] ?
Result: 13.67

Ask: Data request, read-out BLOOD UREA NITROGEN, for C=CCN [ALLYLAMINE]
Result: 14.67

Ask: Look up BLOOD UREA NITROGEN: Cn1cnc([N+](=O)[O-])c1Sc1ncnc2nc[nH]c12 [AZATHIOPRINE]
Result: 13.67
